Target: T1, AR DBD domain protein, labeled with rhodamine B (rhodamine B label)
T1 chain: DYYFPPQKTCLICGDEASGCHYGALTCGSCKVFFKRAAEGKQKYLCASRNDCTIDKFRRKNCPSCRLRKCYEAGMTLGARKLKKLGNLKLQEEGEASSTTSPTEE
Assay: fluorescence polarisation; rhodamine B labeled AR DBD, 200 nM of AR DBD dimer in complex with DNA, rising AR pep‐PROTAC concentration; maximum FP taken as 100% dimer, minimum as monomer
Settings: both partners purified

binder	EC50 / nM
YLCSSNNNRERDKFRRGGSGGTSFEQFWAWLWP (flexible linker; Free peptide in ITC and fluorescence polarisation; also called AR DBD PROTAC; AR DBD PROTAC drug; source: synthetic peptide (solid‐phase peptide synthesis, preparative HPLC)) [AR pep‐PROTAC drug (designed peptide PROTAC)]	1800
